biological target: protein farnesyltransferase (Rattus norvegicus, UniProt Q02293+Q04631); construct: The enzyme is purified according to Reiss, Y., et al., Cell, 62: 81-88 (1990), utilizing steps one through three; from tissue; host or cells: rat brain; experiment: Inhibition of farnesyltransferase (scintillation proximity assay, rat brain enzyme, biotin-K Ras B fragment substrate); assay type: biochemical; conditions: 1 × 10^-6 M (Table 2)
This section presents molecules with their documented % inhibition of farnesyltransferase at 1 × 10^-6 M values.
Please give a number only; it is taken to be in %.

Illustrative cases are given below, each with its answer.
CSCC[C@H](NC(=O)c1ccc(CN(C)CC(O)CO)cc1-c1ccccc1C)C(=O)O (stereo partly drawn); 90
CSCC[C@H](NC(=O)c1ccc(CN(Cc2ccccc2)Cc2ccco2)cc1-c1ccccc1C)C(=O)O; 90
Cc1ccccc1-c1cc(COCc2ccccc2)ccc1C(=O)N[C@@H](CCS(C)(=O)=O)C(=O)O; 88
CSCC[C@H](NC(=O)c1ccc(CN(Cc2ccccc2)Cc2ccccc2)cc1-c1ccccc1)C(=O)O; 55
CSCC[C@H](NC(=O)c1ccc(COCC2CCOC2)cc1-c1ccccc1)C(=O)O (stereo partly drawn); 24
CSCC[C@H](NC(=O)c1ccc(NC(=O)C[C@H]2C[C@@H](C(C)=O)C2(C)C)cc1-c1ccccc1)C(=O)O; 32
CSCC[C@H](NC(=O)c1ccc(COCc2ccc(-c3ccc(F)cc3)o2)cc1-c1cccc2ccccc12)C(=O)[O-].[Li+]; 89
CSCC[C@H](NC(=O)c1ccc(OC/C=C(\C)CC/C=C(\C)CCC=C(C)C)cc1-c1ccccc1C)C(=O)O; 91

In: Look up % inhibition of farnesyltransferase at 1 × 10^-6 M for this molecule: CSCC[C@H](NC(=O)c1ccc(COCc2ccoc2)cc1-c1ccccc1C)C(=O)O
Out: 94

In: Need % inhibition of farnesyltransferase at 1 × 10^-6 M of CSCC[C@H](NC(=O)c1ccc(COCCCc2ccccc2)cc1-c1ccccc1C)C(=O)[O-].[Li+] , thanks.
Out: 97

In: Entry CSCC[C@H](NC(=O)c1ccc(CN(CC23CC4CC(CC(C4)C2)C3)c2ccccc2)cc1-c1ccccc1C)C(=O)O has what % inhibition of farnesyltransferase at 1 × 10^-6 M?
Out: 84

In: What value of % inhibition of farnesyltransferase at 1 × 10^-6 M has been recorded for this entry: CSCC[C@H](NC(=O)c1ccc(Sc2ccc3ccccc3c2)cc1-c1ccccc1C)C(=O)O
Out: 94
